Cited source for all entries: patent US7205295B2

# pIC50 per record follows
Target: PI3Kγ (p101/p110γ protein) (Homo sapiens)
Construct: HA
Experiment: PI3Kγ In Vitro Kinase Assay
Conditions: purified recombinant p101/p110γ with G protein β1/γ2 subunits; 20 μM ATP, 25 μM PIP2; 20 minutes at room temperature
Method: Spodtera frugiperda cells, grown in ESF921 media, were coinfected with baculovirus expressing a glu-tagged p101 and baculovirus expressing an HA-tagged p110γ, at a 3:1 ratio of p101 baculovirus to p110γ baculovirus. […] The presence of radioactive lipid product (PIP3) was measured by adding Wallac Optiphase mix to each well and counting in a Wallac 1450 Trilux plate reader (PerkinElmer Life Sciences Inc., Boston, Mass. 02118).
Please keep in mind that pIC50 is minus log10 of the molar concentration; only the number is needed.

Item: CN1CCN(Cc2ccc(CN3C(=O)COc4ccc(C=C5SC(=S)NC5=O)cc43)cc2)CC1 [Example 33] Test system: PI3Kγ (p101/p110γ protein) (Homo sapiens) Read-out: pIC50 Value: ? 8.40

More entries:
// lookup pIC50 | system=PI3Kγ (p101/p110γ protein) (Homo sapiens) | key= O=C1NC(=O)C(=Cc2ccc3c(c2)N(Cc2ccoc2)C(=O)CO3)S1 [Example 338] 7.92

Okay, and COc1c(CN2C(=O)COc3ccc(C=C4SC(=S)NC4=O)cc32)cccc1C(C)C [Example 260] ? 8.40

Also, O=C1NC(=S)SC1=Cc1ccc2c(c1)N(Cc1ccc(CN3CCOCC3)cc1)C(=O)CO2 [Example 20] please. 8.52

Same for CC(C)(O)c1cc(CN2C(=O)COc3c(F)cc(C=C4SC(=S)NC4=O)cc32)ccc1Cl [Example 331] 8.05

What do we get for C[C@@H]1Oc2ccc(C=C3SC(=S)NC3=O)cc2N(Cc2ccccc2)C1=O [Example 18] ? 6.50

Let us now turn to O=C1NC(=S)SC1=Cc1ccc2c(c1)N(Cc1cc(C(F)(F)F)cc(C(F)(F)F)c1)C(=O)CO2 [Example 29] 7.51

Try this molecule too: COc1ccc(CN2C(=O)COc3ccc(C=C4SC(=S)NC4=O)cc32)cc1C(F)(F)F [Example 167] 8.00

* * *

biological target: PI3Kγ (p101/p110γ protein) (Homo sapiens, UniProt P48736); construct: HA; assay: PI3Kγ In Vitro Kinase Assay; conditions: purified recombinant p101/p110γ with G protein β1/γ2 subunits; 20 μM ATP, 25 μM PIP2; 20 minutes at room temperature
Sequence (P48736 whole entry, species assumed): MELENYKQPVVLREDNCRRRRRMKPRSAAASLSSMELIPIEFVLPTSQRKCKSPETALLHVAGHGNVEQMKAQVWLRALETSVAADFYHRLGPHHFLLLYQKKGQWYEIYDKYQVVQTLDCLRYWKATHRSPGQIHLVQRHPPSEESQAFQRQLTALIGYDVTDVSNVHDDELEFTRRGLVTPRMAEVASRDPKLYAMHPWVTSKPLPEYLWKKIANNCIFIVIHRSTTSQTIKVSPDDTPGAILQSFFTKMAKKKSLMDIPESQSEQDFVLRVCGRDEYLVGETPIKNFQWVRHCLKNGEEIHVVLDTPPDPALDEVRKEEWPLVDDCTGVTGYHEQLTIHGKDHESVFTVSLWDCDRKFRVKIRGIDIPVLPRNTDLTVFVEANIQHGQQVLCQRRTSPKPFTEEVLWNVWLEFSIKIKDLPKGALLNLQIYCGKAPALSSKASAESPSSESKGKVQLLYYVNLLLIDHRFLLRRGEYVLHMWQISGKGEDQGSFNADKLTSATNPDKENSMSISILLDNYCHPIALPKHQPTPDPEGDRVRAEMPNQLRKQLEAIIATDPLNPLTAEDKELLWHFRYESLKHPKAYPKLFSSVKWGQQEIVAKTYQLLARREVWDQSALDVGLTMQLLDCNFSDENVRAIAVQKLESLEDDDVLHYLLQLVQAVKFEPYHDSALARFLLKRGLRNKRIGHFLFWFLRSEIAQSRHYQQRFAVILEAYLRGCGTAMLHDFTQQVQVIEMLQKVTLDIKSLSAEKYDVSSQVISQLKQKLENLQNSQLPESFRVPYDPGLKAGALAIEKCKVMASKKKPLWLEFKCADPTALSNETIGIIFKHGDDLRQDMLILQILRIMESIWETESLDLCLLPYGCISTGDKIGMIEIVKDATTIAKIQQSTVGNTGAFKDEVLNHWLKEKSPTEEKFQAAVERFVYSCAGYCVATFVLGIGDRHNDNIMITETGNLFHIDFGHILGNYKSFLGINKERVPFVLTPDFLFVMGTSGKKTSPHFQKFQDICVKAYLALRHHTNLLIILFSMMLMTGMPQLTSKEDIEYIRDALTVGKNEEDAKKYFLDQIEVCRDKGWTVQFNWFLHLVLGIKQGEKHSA
Sequence (Q8WYR1 whole entry partner, species assumed): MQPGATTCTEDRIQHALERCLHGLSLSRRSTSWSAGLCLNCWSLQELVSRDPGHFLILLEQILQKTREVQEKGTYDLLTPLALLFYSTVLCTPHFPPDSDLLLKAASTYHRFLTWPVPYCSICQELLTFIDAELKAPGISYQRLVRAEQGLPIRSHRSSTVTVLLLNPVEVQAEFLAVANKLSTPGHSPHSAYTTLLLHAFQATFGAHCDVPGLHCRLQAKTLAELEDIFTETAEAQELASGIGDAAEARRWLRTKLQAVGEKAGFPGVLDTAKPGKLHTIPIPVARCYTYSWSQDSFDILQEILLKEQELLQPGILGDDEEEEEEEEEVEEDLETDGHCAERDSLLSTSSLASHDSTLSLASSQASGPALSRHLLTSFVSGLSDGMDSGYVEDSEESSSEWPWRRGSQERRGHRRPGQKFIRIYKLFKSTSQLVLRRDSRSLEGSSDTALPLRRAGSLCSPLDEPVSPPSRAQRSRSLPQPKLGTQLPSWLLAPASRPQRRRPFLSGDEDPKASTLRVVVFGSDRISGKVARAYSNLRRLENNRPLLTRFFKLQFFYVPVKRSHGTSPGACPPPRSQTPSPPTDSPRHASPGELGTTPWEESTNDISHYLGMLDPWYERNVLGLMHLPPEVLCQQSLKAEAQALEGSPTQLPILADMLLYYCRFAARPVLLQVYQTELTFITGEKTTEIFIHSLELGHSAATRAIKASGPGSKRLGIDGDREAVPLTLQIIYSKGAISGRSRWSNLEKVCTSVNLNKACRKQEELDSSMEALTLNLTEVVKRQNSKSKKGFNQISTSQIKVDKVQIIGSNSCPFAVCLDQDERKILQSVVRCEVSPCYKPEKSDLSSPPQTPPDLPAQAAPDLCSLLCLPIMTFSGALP
observation type: pIC50
Convention used: pIC50 is expressed as -log10 of the molar concentration.

Some solved entries appear below for comparison.
Field request: pIC50 | item: O=C1NC(=S)SC1=Cc1cc(F)c2c(c1)N(Cc1ccc3nccnc3c1)C(=O)CO2 [Example 315] 7.36

How about this compound: CC(C)(C)c1cc(CN2CCOCC2)cc(CN2C(=O)COc3ccc(/C=C4\SC(=O)NC4=O)cc32)c1 [Example 277] 8.30

Can you check COc1ccc(CN2C(=O)COc3ccc(C=C4SC(=S)NC4=O)cc32)cc1 [Example 182] next? 6.78

One more compound: CC(C)(C)c1cc(C(C)(C)C)nc(CN2C(=O)COc3ccc(CC4SC(=S)NC4=O)cc32)n1 (stereo not shown) [Example 234] 5.68

***
Given the compound COC(=O)c1nc(CN2C(=O)COc3ccc(C=C4SC(=S)NC4=O)cc32)ncc1OC [Example 231] , what is its reported pIC50? 7.30

Follow-up entry: O=C1NC(=O)C(=Cc2ccc3c(c2)N(Cc2ccc(F)c(Cl)c2)C(=O)CO3)S1 [Example 308] 9.00

One more compound: O=C1NC(=S)SC1=Cc1ccc2c(c1)N(Cc1cc(Br)cc(I)c1)C(=O)CO2 [Example 41] 7.21

What do you have for O=C1NC(=S)SC1=Cc1cc(F)c2c(c1)N(Cc1ccc(CN3CCCCC3)cc1)C(=O)CO2 [Example 73] ? 8.15

Then CC(C)(C)c1cc(CN2C(=O)COc3c(Cl)cc(C=C4SC(=S)NC4=O)cc32)cc(C(C)(C)C)c1 [Example 47] ? 6.49

* * *

Target: PI3Kγ (p101/p110γ protein) (Homo sapiens, UniProt P48736)
Construct: HA
Assay: PI3Kγ In Vitro Kinase Assay
Conditions: purified recombinant p101/p110γ with G protein β1/γ2 subunits; 20 μM ATP, 25 μM PIP2; 20 minutes at room temperature
Protocol: Spodtera frugiperda cells, grown in ESF921 media, were coinfected with baculovirus expressing a glu-tagged p101 and baculovirus expressing an HA-tagged p110γ, at a 3:1 ratio of p101 baculovirus to p110γ baculovirus. […] The presence of radioactive lipid product (PIP3) was measured by adding Wallac Optiphase mix to each well and counting in a Wallac 1450 Trilux plate reader (PerkinElmer Life Sciences Inc., Boston, Mass. 02118).
observation type: IC50 (nM)
Output spec: scalar in nM, unitless text.

For O=C1NC(=S)SC1=Cc1ccc2c(c1)N(Cc1cccs1)C(=O)CO2 [Example 333] , what is its reported IC50? 7

More entries:
Find the recorded IC50 belonging to CC(=O)OCc1ccccc1CN1C(=O)COc2ccc(C=C3SC(=S)NC3=O)cc21 [Example 22] and report it. 17

* * *

target: PI3Kγ (p101/p110γ protein) (Homo sapiens, UniProt P48736); construct: HA; assay: PI3Kγ In Vitro Kinase Assay; conditions: purified recombinant p101/p110γ with G protein β1/γ2 subunits; 20 μM ATP, 25 μM PIP2; 20 minutes at room temperature
Below, each entry is listed with its recorded IC50.
Entry format: amount then unit.

Could you share what IC50 was measured for CC(=O)OCc1cc(CN2C(=O)COc3ccc(C=C4SC(=S)NC4=O)cc32)cc(C(C)(C)C)c1 [Example 70] , tested on PI3Kγ (p101/p110γ protein) (Homo sapiens, UniProt P48736)? 0.012 µM

Same question, CC(C)(C)OC(=O)CNC(=O)c1cc(CN2C(=O)COc3ccc(C=C4SC(=S)NC4=O)cc32)cc(C(C)(C)C)c1 [Example 59] this time 0.07 µM

Same lookup for O=C1COc2ccc(C=C3NC(=O)NC3=O)cc2N1 [Example 87] , please. 16.1 µM

---
Request - read-out IC50 | tested on PI3Kγ (p101/p110γ protein) (Homo sapiens, UniProt P48736) | compound O=C1NC(=O)C(=Cc2ccc3c(c2)N(Cc2cc(Cl)nc(Cl)c2)C(=O)CO3)S1 [Example 226] 34.2 µM

* * *

molecular target: PI3Kγ (p101/p110γ protein) (Homo sapiens, UniProt P48736); construct: HA; experiment: PI3Kγ In Vitro Kinase Assay; conditions: purified recombinant p101/p110γ with G protein β1/γ2 subunits; 20 μM ATP, 25 μM PIP2; 20 minutes at room temperature
This section presents molecules with their documented pIC50 values.
Quick note: pIC50 means taking -log10 of the concentration in moles per liter.

Report pIC50 for `O=C1CSc2ccc(C=C3SC(=S)NC3=O)cc2N1` please. 6.59

Same thing, different molecule: `CC(C)(C)c1cc(CN2C(=O)COc3ccc(C=C4SC(=S)NC4=O)cc32)cc(C(N)=O)c1` 7.59

What about `O=C1NC(=S)S/C1=C\c1cnc2c(c1)N(CCc1ccccc1)C(=O)CO2` ? 6.34

And then CC(C)(C)C1CC(CN2C(=O)COc3ccc(C=C4SC(=S)NC4=O)cc32)CC(C(C)(C)C)C1 (centres unmarked) , what is it? 6.76

Try `CN1CCN(Cc2cccc(CN3C(=O)COc4ccc(C=C5SC(=S)NC5=O)cc43)c2)CC1` next. 7.38

Moving on to the next molecule.
Fill in: pIC50 of `O=C1NC(=S)SC1=Cc1ccc2c(c1)N(CCc1ccc(Cl)c(Cl)c1)C(=O)CO2` is ___ 8.40

* * *

Listed below: pIC50 values for each entry.
target: PI3Kγ (p101/p110γ protein) (Homo sapiens); construct: HA; experiment: PI3Kγ In Vitro Kinase Assay; conditions: purified recombinant p101/p110γ with G protein β1/γ2 subunits; 20 μM ATP, 25 μM PIP2; 20 minutes at room temperature
pIC50 field: float, defined as -log10 of concentration (mol/L).

Guide cases for pIC50, answers given:
Give the measured pIC50 of `O=C1NC(=S)SC1=Cc1ccc2c(c1)N(Cc1ccccc1)C(=O)CS2` . 7.54

What do you have for `Cc1cc(C=C2SC(=S)NC2=O)cc2c1OCC(=O)N2` ? 6.80

Would you mind doing `O=C1COc2ncc(C=C3SC(=S)NC3=O)cc2N1` as well? 5.72

Next:
Please report the recorded pIC50 for `Cn1nc(C(C)(C)C)cc1CN1C(=O)COc2ccc(C=C3SC(=S)NC3=O)cc21` . 6.74

Next: `Cc1cccc(CN2C(=O)COc3ccc(C=C4SC(=S)NC4=O)cc32)c1C` 8.30
